Data provenance: the supplement of paper PMC11451515

Test system: NOMO1
assay-method-text: cell viability relative to DMSO control; higher = less cytotoxic
condition-parameters: HPLM + 10% dialyzed FBS; 48 h; 46.1 µM
Below, each entry is listed with its recorded cell viability.
Answer in %, number only, no unit symbol.

{"compound": "CC(N[C@H]1CCCC[C@@H]1NC(=O)c1ccc(Cl)cc1)c1cccc2ccccc12 (stereo partly drawn)", "target-system": "NOMO1", "cell viability / %": 29.5}
{"compound": "CN(C)CC(C)(C)CNc1nn2c(-c3ccccc3)nnc2cc1C1CCC1", "target-system": "NOMO1", "cell viability / %": 22.4}
{"compound": "CN1CCCN(CC1)C2=CC=C3C(=O)\\C(=C/4SC5=C(C=CC=C5)N4C3=N2)C(=O)NCC6=CN=C(C)C=N6", "target-system": "NOMO1", "cell viability / %": 94.2}
{"compound": "Cc1cccc(Nc2ccncc2[S+](=O)([O-])NC(=O)NC(C)C)c1", "target-system": "NOMO1", "cell viability / %": 56}

Task: Dear colleague, I am looking for the recorded cell viability of the following compound: Nc1ccc([S+](=O)([O-])Nc2ccnn2-c2ccccc2)cc1
Output: 113

Task: Another: Cc1cc2c(C(N)=O)cccc2n1-c1nc2c(c(NCc3ccccc3)n1)COCC2
Output: 3.75

Task: Another: Cc1ccnc2c1NC(=O)c1cccnc1N2C1CC1
Output: 35.8

Task: Another: CC#CCn1c(N2CCC[C@@H](N)C2)nc2c1c(=O)n(Cc1nc(C)c3ccccc3n1)c(=O)n2C
Output: 75.1

----------
Tested on: SEM cells
assay-method-text: cell viability relative to DMSO control; higher = less cytotoxic
condition-parameters: RPMI 5 mM glucose + 10% FBS; 48 h; 1.71 µM
assay-endpoint: cell viability (%)
Answer in %, number only, no unit symbol.

{"compound": "CN(C)CC(C)(C)CNc1nn2c(-c3ccccc3)nnc2cc1C1CCC1", "target-system": "SEM cells", "unit": "%", "cell viability": 106}

Turning now to a further record.
Task: Dear colleague, I am looking for the recorded cell viability of the following compound: CC#CCn1c(N2CCC[C@@H](N)C2)nc2c1c(=O)n(Cc1nc(C)c3ccccc3n1)c(=O)n2C
Output: 108

----------
Tested on: NOMO1
assay-method-text: cell viability relative to DMSO control; higher = less cytotoxic
condition-parameters: RPMI 5 mM glucose + 10% FBS; 48 h; 0.19 µM
assay-endpoint: cell viability (%)
Answer in %, number only, no unit symbol.

Below, each entry is followed by its recorded cell viability result.
{"compound": "COc1c(C)c2c(c(O)c1C/C=C(\\C)CCC(=O)O)C(=O)OC2", "unit": "%", "reported-result": 94.9}
{"compound": "CC1=CC(=CC(=C1C\\C2=N\\CCN2)C)C(C)(C)C", "unit": "%", "reported-result": 96.3}

Task: Dear colleague, I am looking for the recorded cell viability of the following compound: CCCCCNC(=O)N1CCC(CN(Cc2ccc(Cl)cc2)Cc2ccc([N+](=O)[O-])s2)C1 (centres undefined)
Output: 120

Task: Another: Cc1csc(-c2nnc(Nc3ccc(Oc4ncccc4-c4ccnc(N)n4)cc3)c3ccccc23)c1
Output: 52.6

Task: Another: Cc1coc2c1C(=O)C(=O)c1c-2ccc2c1CCCC2(C)C
Output: 103

Task: Another: CN1CC(=O)N2[C@H](c3ccc4c(c3)OCO4)c3[nH]c4ccccc4c3C[C@@H]2C1=O
Output: 101

Task: Another: C[C@@H](CN1CC(=O)NC(=O)C1)N1CC(=O)NC(=O)C1
Output: 89

Task: Another: C[C@]12CC[C@H]3[C@@H](CCC4=CC(=O)CC[C@@H]43)[C@@H]1CC[C@@H]2OC(=O)CCc1ccccc1
Output: 113

Task: Another: CNCC[C@H](Oc1cccc2ccccc12)c1cccs1
Output: 112
